- System: Escherichia coli TOP10;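 further: peptides expressed intracellularly from a pBAD plasmid library in pooled LB shake-flask culture, induced with 0.3% L-arabinose, DNA abundance read by NGS, three biological replicates, DESeq2 with apeglm shrinkage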
- ASSAY REMARKS: shrunken log2 fold change of peptide-encoding DNA abundance (4.5 h post-induction vs induction); higher = less antimicrobial activity (less host growth inhibition)
- MEASUREMENT CONDITIONS: time post-induction: 4.5 h; library: site-saturation at positions 5, 18, 19, 20
Listed below: shrunken log2 fold change values for each entry.
MEASURED ENDPOINT: shrunken log2 fold change

- RRIRHRPPRLPRPRPRPETTPRP: 0.194
- RRIRPRPPRLPRPRPRPSVWPRP: -0.0905
- RRIRARPPRLPRPRPRPSHQPRP: -0.138
- RRIRCRPPRLPRPRPRPDTIPRP: -0.738
- RRIRIRPPRLPRPRPRPLNRPRP: -0.476
- RRIRCRPPRLPRPRPRPGNMPRP: -0.368
- RRIRMRPPRLPRPRPRPDRLPRP: 0.55
- RRIRTRPPRLPRPRPRPYYVPRP: -1.13
- RRIRRRPPRLPRPRPRPVHLPRP: -0.022
- RRIRARPPRLPRPRPRPSNGPRP: -0.318
- RRIRLRPPRLPRPRPRPTKVPRP: -0.0842
- RRIRVRPPRLPRPRPRPEHSPRP: 0.115
- RRIRLRPPRLPRPRPRPVQLPRP: 0.0978
- RRIRIRPPRLPRPRPRPLNVPRP: -1.23
- RRIRPRPPRLPRPRPRPWDDPRP: -0.144
- RRIRIRPPRLPRPRPRPYCMPRP: -1.34
- RRIRDRPPRLPRPRPRPIVYPRP: -0.0329
- RRIRDRPPRLPRPRPRPTCFPRP: 0.0704
- RRIRRRPPRLPRPRPRPIGHPRP: 0.113
- RRIRLRPPRLPRPRPRPDWMPRP: -0.152
- RRIRNRPPRLPRPRPRPVCGPRP: 0.0972
- RRIRPRPPRLPRPRPRPPGNPRP: 0.105
- RRIRGRPPRLPRPRPRPKRQPRP: 0.377
- RRIRCRPPRLPRPRPRPHNCPRP: -0.491
- RRIRMRPPRLPRPRPRPVGNPRP: 0.0176
- RRIRDRPPRLPRPRPRPQMDPRP: -0.0397
- RRIRNRPPRLPRPRPRPWKPPRP: 0.0219
- RRIRGRPPRLPRPRPRPSSIPRP: 0.0764
- RRIRMRPPRLPRPRPRPWWIPRP: -0.442
- RRIRQRPPRLPRPRPRPQWWPRP: 0.0549
- RRIRHRPPRLPRPRPRPCWPPRP: -0.106
- RRIRMRPPRLPRPRPRPCTCPRP: 0.0043
- RRIRFRPPRLPRPRPRPKCNPRP: -0.238
- RRIRSRPPRLPRPRPRPDMSPRP: -0.0189
- RRIRVRPPRLPRPRPRPEIWPRP: 0.223
- RRIRFRPPRLPRPRPRPAFEPRP: 0.226
- RRIRYRPPRLPRPRPRPDYDPRP: -0.476
- RRIRERPPRLPRPRPRPMAPPRP: 1.59
- RRIRWRPPRLPRPRPRPQMQPRP: 0.0894
- RRIRRRPPRLPRPRPRPFFFPRP: 0.504
- RRIRARPPRLPRPRPRPYNCPRP: -0.0254
- RRIRDRPPRLPRPRPRPENYPRP: 0.0528
- RRIRRRPPRLPRPRPRPADNPRP: 0.111
- RRIRKRPPRLPRPRPRPFGSPRP: -0.00822
- RRIRCRPPRLPRPRPRPLGSPRP: -0.423
- RRIRLRPPRLPRPRPRPEHNPRP: -0.204
- RRIRNRPPRLPRPRPRPTLMPRP: 0.0843
- RRIRLRPPRLPRPRPRPCWDPRP: -0.104
- RRIRDRPPRLPRPRPRPVRDPRP: 0.203
- RRIRERPPRLPRPRPRPHWKPRP: -0.0167
- RRIRWRPPRLPRPRPRPWWSPRP: 0.173
- RRIRTRPPRLPRPRPRPIGEPRP: -0.195
- RRIRARPPRLPRPRPRPYWLPRP: -0.148
- RRIRIRPPRLPRPRPRPHVSPRP: -0.0557
- RRIRYRPPRLPRPRPRPDYMPRP: -0.761
- RRIRRRPPRLPRPRPRPCQLPRP: -0.231
- RRIRYRPPRLPRPRPRPAIDPRP: -0.0997
- RRIRDRPPRLPRPRPRPARHPRP: 0.368
- RRIRIRPPRLPRPRPRPWFRPRP: -0.129
- RRIRKRPPRLPRPRPRPVAVPRP: 0.138
- RRIRWRPPRLPRPRPRPNNLPRP: -0.513
- RRIRVRPPRLPRPRPRPCMLPRP: -0.606
- RRIRDRPPRLPRPRPRPRYRPRP: -0.101
